# EXPERIMENTAL_SYSTEM: T1, human TROP2 protein (Sino Biological, #10428-H08H) (human, UniProt P09758 27-274)
# T1 construct: bought protein; also called human Trop2 protein antigen (His tag); not shown: His tag
# T1 sequence (looked up): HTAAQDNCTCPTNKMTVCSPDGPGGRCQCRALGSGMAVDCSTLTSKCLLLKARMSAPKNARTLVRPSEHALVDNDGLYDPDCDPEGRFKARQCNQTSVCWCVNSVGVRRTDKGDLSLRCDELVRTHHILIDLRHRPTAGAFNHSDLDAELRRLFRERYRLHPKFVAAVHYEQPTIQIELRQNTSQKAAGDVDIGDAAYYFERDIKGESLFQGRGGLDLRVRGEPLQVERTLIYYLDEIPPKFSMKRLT
# METHOD_DESCRIPTION: BLI epitope binning (Octet), biotinylated human Trop2 on SA sensor; row = primary antibody; competitor (secondary antibody, column): PR001142
# Protocol: The biotinylated mixture after the incubation was washed three times with PBS and a Zeba centrifugal desalting column (Thermo Fisher, #89882) to remove excess biotin. The biotinylated Trop2 protein was captured by an SA sensor (Pall ForteBio, #18-5019) with the loading baseline set at 0.3 nm. The sensor was immersed in a well of assay buffer containing 50 nM primary antibody for 300 s. The sensor was then transferred to a well of assay buffer containing 50 nM primary antibody for 300 s. […]
Quick reference: Inhibition rate (%) of the listed items.
Entry rule: numbers only, all in %.

| BINDER | UOM | ASSAY_RESULT |
| --- | --- | --- |
| PR001142 (antibody, human IgG1, kappa, V domains shown, fully human IgG1/kappa; also called antibody No. (9)) VH: QVQLQESGPGLVKPSGTLSLTCAVSGDSISSNNWWSWVRQPPGKGLEWIGEIYPGGNPNYNPSLKSRVTISVDKSKNQFSLKLNSVTAADTAVYYCARGSGVISYFDYWGQGTLVTVSS VL: DIQMTQSPSTLSASVGDRVTITCRASQSIGHWLAWYQQKPGKAPKLLIYKASSLESGVPSRFRGSGSGTEFTLTISSLQPDDFATYYCQQYSSYSPITFGQGSRLEIKR | % | 101 |
| comparative example 2 antibody Tab (hRS7) (antibody, human IgG1, kappa, V domains shown, prepared on the basis of sacituzumab govitecan (ChemPartner, #T07-001); naked antibody) VH: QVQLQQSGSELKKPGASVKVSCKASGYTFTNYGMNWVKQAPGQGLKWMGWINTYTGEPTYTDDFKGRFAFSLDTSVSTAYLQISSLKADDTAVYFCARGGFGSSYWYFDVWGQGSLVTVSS VL: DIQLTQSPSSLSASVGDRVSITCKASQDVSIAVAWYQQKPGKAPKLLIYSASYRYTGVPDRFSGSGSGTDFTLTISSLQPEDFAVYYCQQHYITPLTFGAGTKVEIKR | % | 93.3 |
| PR001165 (antibody, human IgG1, kappa, V domains shown, fully human IgG1/kappa; also called antibody No. (26)) VH: QVQLVESGGGVVQPGRSLRLSCEASGFTFSHYGMHWVRQAPGKGLEWVAVIWYDGIKTYYVESVKGRFTISRDNSKNTLNLQMNRLRAEDTAVYYCARDGGFGESNYYGLDVWGQGTTVTVSS VL: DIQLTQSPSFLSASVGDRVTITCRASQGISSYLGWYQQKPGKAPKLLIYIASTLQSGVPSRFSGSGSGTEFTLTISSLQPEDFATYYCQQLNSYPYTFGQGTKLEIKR | % | 98.1 |

Now look at this one.
Query: Indicate its recorded Inhibition rate (%); the binder in question is PR001166 (antibody, human IgG1, kappa, V domains shown, fully human IgG1/kappa; also called antibody No. (27)) VH: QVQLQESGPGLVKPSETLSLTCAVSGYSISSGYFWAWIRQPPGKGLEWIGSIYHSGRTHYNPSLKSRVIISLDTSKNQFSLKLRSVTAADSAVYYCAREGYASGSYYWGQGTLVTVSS VL: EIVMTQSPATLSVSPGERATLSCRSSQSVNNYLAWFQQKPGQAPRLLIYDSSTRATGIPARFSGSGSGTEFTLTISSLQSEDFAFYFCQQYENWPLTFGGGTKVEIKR
Reply: 85.4

Where do these numbers come from? They come from patent US20240067748A1.
